Biological target: T1, cynomolgus TIM-3 on isolated cyno CD14+ monocytes (cynomolgus monkey, UniProt A0A2K5U3G7 22-294)
T1 construct: whole, on cells; also called cyno monocytes expressing TIM-3
T1 sequence: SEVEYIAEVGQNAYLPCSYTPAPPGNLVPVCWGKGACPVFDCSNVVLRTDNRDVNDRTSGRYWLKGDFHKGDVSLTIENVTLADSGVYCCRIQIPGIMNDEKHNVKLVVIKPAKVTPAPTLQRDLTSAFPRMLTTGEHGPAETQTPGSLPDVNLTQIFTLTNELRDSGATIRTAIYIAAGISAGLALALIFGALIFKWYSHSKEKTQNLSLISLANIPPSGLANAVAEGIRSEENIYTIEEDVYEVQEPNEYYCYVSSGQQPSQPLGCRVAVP
Assay: FACS, cyno CD14+ monocytes, cyno3 (30085F)
TEST READOUT: Specific Binding [MFI] (MFI)
Number in MFI, nothing else.

Query: Provide measured Specific Binding [MFI] value, entry: anti-TIM3 antibody Tim3_0021 (antibody, V domains shown, Mouse monoclonal from hybridoma) VH: QVQLQQSGPQLVRPGASVQISCKASGYSFTSYLLHWLKQRPGQGLEWIGMIDPSDSETRLNQKFKDKATLTVDKSSSTAYMQLSSPTSEDSAVYYCARDGYYAWYYFDCWGQGTTLTVSS VL: DIVLTQSPATLSVTPGDRVSLSCRASQSIGNNLHWYQQKSHESPRLLIKYASHSISGIPSKFSGTGSGTDFTLSFNSVETEDFGMYFCQQSNSWPLTFGAGTKLELK
Response: 399

Query: Retrieve Specific Binding [MFI] measured for anti-TIM3 antibody Tim3_0016 (antibody, V domains shown, Mouse monoclonal from hybridoma; also called clone 0016; Tim3_0016-A488) VH: QVTLKESGPGILQPSQTLRLTCSFSGFSLSTSGMSVGWIRQPSGKGLEWLAHIWLNDDVFFNPALKSRLTISKDTSNNQVFLQIASVVTADTATYYCVRANGYLYALDYWGQGTSVTVSS VL: QIVLTQSPAIMSASPGQKVTITCSASSSVNYTQWYQQKLGSSPKLWIYDAFKLAPGVPARFSGSGTGTSYSLTISSMEAEDAASYFCHQWSSYPWTFGGGTKLEIK and print it.
Response: 187

Query: Give Specific Binding [MFI] for anti-TIM3 antibody Tim3_0038 (antibody, V domains shown, Mouse monoclonal from hybridoma) VH: EVQLQQSGAEPLKPGASVKLTCTTSGFNIKDYYIHWVKQRSDQGLEWIGRIDPEDGELIYAPKFQDKATITVDTSSNIAYLQLNSLTSEDTAVYYCSRDHGYVGWFAYWGQGTLVTVSA VL: NVVMTQSPKSMIMSVGQRVTLNCKASENVDTYVSWYQQKPEQSPKLLIYGASNRYTGVPDRFTGSRSATDFTLTISSVQAEDLAVYYCGQSYSYPWTFGGGTKLEFR
Response: 120

Query: Identify measured Specific Binding [MFI] associated with anti-TIM3 antibody Tim3_0016 variant (Tim3_0018) (antibody, V domains shown, Mouse monoclonal from hybridoma; also called TIM3-0016 variant (0018); Tim3_0016 variant 0018-A488) VH: QVTLKESGPGILQPSQTLSLTCSFSGFSLSTSGMSVGWIRQPSGKGLEWLAHIWLNDDVFFNPALKRRLTISKDTSNNQVFLQIASVVTADTATYYCVRANGYLYALDYWGQGISVTVSS VL: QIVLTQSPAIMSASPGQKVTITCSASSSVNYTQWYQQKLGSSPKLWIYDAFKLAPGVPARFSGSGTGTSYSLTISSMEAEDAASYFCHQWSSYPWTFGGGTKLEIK
Response: 417
